# Tested on: UACC-62 melanoma
# Test method notes: NCI-60 one-dose screen, 48 h
# Experimental context: 10 µM unless noted
The panel holds about 83,000 compounds, 20% with a hit somewhere; the sample as a whole holds those more often. Calls of active or inactive are those of the source. How the source made its calls: active means growth percent below 10; inactive means the rest.
Result category, one only: class 1 (active), class 0 (inactive)

Hi team, can someone confirm the assay call for COc1ccc(-c2cnc(N)nc2-c2ccc(OC)cc2O)cc1 ?
class 0

Hi team, can someone confirm the assay call for Cc1cc(NC(=O)c2cnc(N3CCN(CCOCCOCCOCCOCCC(=O)N[C@H](C(=O)N4C[C@H](O)C[C@H]4C(=O)N[C@@H](C)c4ccc(-c5scnc5C)cc4)C(C)(C)C)CC3)cn2)c2ncccc2c1 ?
class 1

Hi team, can someone confirm the assay call for Cn1c(COC(=O)NCCc2ccccn2)nc2c(N3CCOCC3)nc(Cl)nc21 ?
class 0

Hi team, can someone confirm the assay call for O=C(CSc1nc2sc3c(c2c(=O)n1Cc1ccccc1)CCCC3)N1CCN(c2ccccc2)CC1 ?
class 0

###

# Tested on: NCI-H460 lung
# Test method notes: NCI-60 one-dose screen, 48 h (100 = growth as untreated, 0 = no growth, -100 = all killed)
# Experimental context: 10 µM unless noted
Compounds without any hit were thinned out: in the full panel of roughly 83,000, 20% have a hit.
Parameter measured: growth (%)
Return type: number; implicit unit %.

Answer with the recorded growth of Nc1ccccc1NC(=O)c1ccc(CN2CCC/C(=C\c3cccc(Cl)c3)C2=O)cc1 only.
7.66

Answer with the recorded growth of COc1ccc2c(/C=C3/C(=O)NC(=S)NC3C)cc(=O)oc2c1 (configuration not stated) only.
105

Answer with the recorded growth of COc1cc2c(cc1[N+](=O)[O-])-c1ccc([N+](=O)[O-])cc1/C2=N/NC(N)=S only.
29.6

Answer with the recorded growth of COC(=O)C1=C(C(=O)ONCCN(C)C)C2C=CC1(C(Cc1ccccc1)Nc1ccc(F)cc1)O2 (configuration not stated) only.
113

Answer with the recorded growth of Cc1cn(-c2cc(C(=O)Nc3cccc(C#Cc4cccc5[nH]nc(N)c45)c3)cc(C(F)(F)F)c2)cn1 only.
40.6

Answer with the recorded growth of CCCCc1ccc(Nc2nnc(SCC(=O)NC(=O)NCC)s2)cc1 only.
102

Answer with the recorded growth of CN(C)C(C(N)=O)c1ccc(Cl)cc1 (configuration not stated) only.
109

Answer with the recorded growth of CCCCCCCCCCN=C(N)N=C(N)N only.
40.6

Answer with the recorded growth of C[C@]12C[C@H]1CC[C@]1(C)[C@@H]2CC[C@@]23C[C@H](CC[C@H]21)[C@@](O)(CO)C3 only.
94.3

Answer with the recorded growth of COc1ccc(NC(=O)c2sc3nc(C)c(C(=O)CCc4cccc(OC)c4)cc3c2N)cc1 only.
1.32

Answer with the recorded growth of CCc1nc(C)cn1C(=O)OCc1nc2nc(Cl)nc(N3CCOCC3)c2[nH]1 only.
13.9

Answer with the recorded growth of Clc1cc(Cl)cc(N2N=C(c3cccc(Nc4ccncc4)c3)CC2c2ccc(Br)cc2)c1 (configuration not stated) only.
-81.8

Answer with the recorded growth of CC1(c2ccccc2)NC(=O)N(CC(=O)Nc2cccc(I)c2)C1=O (configuration not stated) only.
93.3

Answer with the recorded growth of COc1ccc(-c2nc(SCCC(C)C)nc(N/N=C(/C)c3ccc(C)cc3)c2C#N)cc1 only.
99.7

Answer with the recorded growth of C[C@H]1[C@H](C)CC[C@]2(CO)CC[C@]3(C)C(=CC[C@@H]4[C@@]5(C)CCCNC(C)(C)[C@@H]5CC[C@]43C)[C@H]12 only.
-83.3

Answer with the recorded growth of COc1ccc(-c2nc(N/N=C/c3cccc(O)c3)nc(N3CCOCC3)c2C#N)cc1 only.
83.8

Answer with the recorded growth of Cc1c2c(cc[n+]1Cc1ccc(F)cc1)c1ccc(OCc3cccc(F)c3)cc1n2Cc1cccc(F)c1 only.
-78

Answer with the recorded growth of CC(=O)N1c2ccccc2NC2=C(C(=O)N(Cc3ccccc3)C2(C)C)C1c1ccco1 (configuration not stated) only.
4.83

Answer with the recorded growth of Cc1ccc(-c2c(Br)c(OC(=O)CO[C@@H]3C[C@H](C)CC[C@H]3C(C)C)c(-c3ccc(C)cc3C)c(Br)c2OC(=O)CO[C@H]2C[C@@H](C)CC[C@@H]2C(C)C)c(C)c1 only.
105

Answer with the recorded growth of COc1ccc(C2CC(c3cccc(Nc4ccncc4)c3)=NN2c2ccccc2)cc1 (configuration not stated) only.
-40.8

Answer with the recorded growth of COc1ccc(/C=N/C2=C(C#N)C(c3ccccc3[N+](=O)[O-])c3ccc4ccccc4c3O2)cc1 (configuration not stated) only.
91.4

Answer with the recorded growth of C#CCn1cc(C=C2C(=O)NC(=S)NC2=O)c2cc(Cl)ccc21 only.
14.6

Answer with the recorded growth of O=C1Nc2ccccc2/C1=N/c1nc(-c2ccc(Cl)cc2)cs1 only.
67.7

Answer with the recorded growth of Cc1cc(Nc2cccc(C(F)(F)F)c2)n2c(nc3ccccc32)c1C#N only.
17

Answer with the recorded growth of CC(=O)NCCCS(=O)(=O)O only.
101

Answer with the recorded growth of O=C(O)c1ccc[n+](CC(=O)N2CCN(c3cc4c(cc3F)c(=O)c(C(=O)O)cn4C3CC3)CC2)c1 only.
95.6

Answer with the recorded growth of C#CC(=O)Nc1cccc(Nc2nc3c(c(NCc4ccccc4)n2)CCCC3)c1 only.
-57.8

Answer with the recorded growth of COc1ccc(-c2nc3sccn3c2/C=C/C(=O)c2cc(OC)c(OC)c(OC)c2)cc1 only.
47

Answer with the recorded growth of Cc1ccc(S(=O)(=O)Nc2ccc(Cl)cc2)cc1 only.
105

Answer with the recorded growth of COc1ccc(-c2nc(N/N=C/c3ccco3)nc(N3CCOCC3)c2C#N)cc1 only.
66.4

Answer with the recorded growth of Cc1nc2sc(C(=O)Nc3cccc(Br)c3)c(N)c2cc1C(=O)c1ccc(C(F)(F)F)cc1 only.
63.7

Answer with the recorded growth of COc1ccc(Cl)cc1NC(=O)c1c(NC(=O)C(F)(F)C(F)(F)F)sc2c1CCCCC2 only.
3.45

###

# System: SF-539 CNS
# Test method notes: NCI-60 one-dose screen, 48 h (100 = growth as untreated, 0 = no growth, -100 = all killed)
# Experimental context: 10 µM unless noted
# Method: Cells are grown in 96 well plates and exposed to the test compound for 48 hours. Compounds are tested at a single concentration, which is 10^-5 M for most compounds. The reported endpoint is percent growth (GI% or GIPRCNT), where numbers from 0 - 100% represent growth inhibition, and numbers from -100% - 0 represent cell death. For example, a value of 40 represents 60% growth inhibition. A value of 0 means no net growth occurred over the course of the experiment. […]
Compounds without any hit were thinned out: in the full panel of roughly 83,000, 20% have a hit. The source made the active and inactive calls. How the source made its calls: active means growth percent below 10; inactive means the rest.
Parameter measured: growth

Answer with the recorded growth of CCN(CC)S(=O)(=O)c1cccc([N+](=O)[O-])c1 only.
98.9% (inactive)

Answer with the recorded growth of CCC(=O)c1ccc(O)c(OC)c1 only.
111% (inactive)

Answer with the recorded growth of Fc1ccc(-n2cc(COc3ncnc4sc5c(c34)CCCC5)nn2)cc1Cl only.
98.8% (inactive)

Answer with the recorded growth of COc1ccc(-c2c[nH]c(C(=O)O)c2-c2cc(OC)c3c(c2OC)OCO3)cc1 only.
97.4% (inactive)

Answer with the recorded growth of O=C(O)c1ccc[n+](CC(=O)N2CCN(c3cc4c(cc3F)c(=O)c(C(=O)O)cn4C3CC3)CC2)c1 only.
69.1% (inactive)

Answer with the recorded growth of C=C1C(=O)O[C@H]2[C@H]1CC/C(COC(=O)CCCc1c[nH]c3ccccc13)=C\CC[C@@]1(C)O[C@@H]21 only.
41.7% (inactive)

Answer with the recorded growth of C=C1C(=O)O[C@H]2[C@H]1CC/C(COC(=O)/C=C/c1c[nH]c3ccccc13)=C\CC[C@@]1(C)O[C@@H]21 only.
-95.5% (active)

Answer with the recorded growth of O=C1c2ccccc2C(=O)c2c(NCCN=Cc3ccccc3O)cccc21 only.
62% (inactive)

Answer with the recorded growth of CCN1C(=O)/C(=c2\sc3n(c2=O)NC2C(N=3)N(CC)C(=O)N2CC)c2ccccc21 (stereo unspecified) only.
-18.6% (active)

Answer with the recorded growth of CC(=O)Nc1ccc(C(=O)Nc2cc(-c3ccccc3)ccc2N)cc1 only.
81% (inactive)

Answer with the recorded growth of Cc1ccc(C2CC(c3cccc(Nc4ccncc4)c3)=NN2c2cc(Cl)cc(Cl)c2)cc1 (stereo unspecified) only.
78.1% (inactive)

Answer with the recorded growth of CN1CCN(c2ccc(NC3=C(Cl)C(=O)c4ncccc4C3=O)cc2C#N)CC1 only.
91.6% (inactive)

Answer with the recorded growth of O=C(Cc1ccc(/C=C/C(=O)c2ncc[nH]2)cc1)Nc1ccc(C(F)(F)F)cc1 only.
-10.1% (active)

Answer with the recorded growth of CC1NC(=S)NC(=O)/C1=C/c1cc(=O)oc2c1ccc1ccccc12 (stereo unspecified) only.
96.8% (inactive)

Answer with the recorded growth of COc1ccc(-c2nn(Cc3ccccc3)c3c2-c2oncc2CC3)cc1OC only.
93.3% (inactive)

Answer with the recorded growth of CC[C@@]12C=CCN3CC[C@]4(c5cc(NC(=O)COc6cc(OCC(=O)Nc7cc8c(cc7OC)N(C)[C@H]7[C@@](O)(C(=O)OC)[C@H](OC(C)=O)[C@]9(CC)C=CCN%10CC[C@]87[C@@H]%109)cc7oc(-c8ccccc8)cc(=O)c67)c(OC)cc5N(C)[C@@H]4[C@](O)(C(=O)OC)[C@H]1OC(C)=O)[C@H]32 only.
89.3% (inactive)

Answer with the recorded growth of Cc1cc(Nc2cccc(C(F)(F)F)c2)n2c(nc3ccccc32)c1C#N only.
40.9% (inactive)

Answer with the recorded growth of COc1cc2ncnc(Nc3ccc(C(=O)/C=C/c4ccc(C(F)(F)F)cc4F)cc3)c2cc1OC only.
93.7% (inactive)

Answer with the recorded growth of CCN(CC)CCOC(COc1cc(C)cc(C)c1)COc1cc(C)cc(C)c1 only.
61.9% (inactive)

Answer with the recorded growth of N#Cc1ccc(-c2ccc3c(c2)NC(=O)/C3=C\c2ccc[nH]2)cc1 only.
101% (inactive)

Answer with the recorded growth of CN1C2CCC1CN(c1cnc(C(=O)Nc3cc(F)cc4cccnc34)cn1)C2 only.
70.4% (inactive)

Answer with the recorded growth of CCC(C)C(N)C(=O)NNc1n[nH]c(=S)n1N (stereo unspecified) only.
94.7% (inactive)

Answer with the recorded growth of COc1ccc(C(=O)/C=C/c2c(OC)cc(OC)cc2OC)c(OC)c1 only.
8.25% (active)

Answer with the recorded growth of COc1ccc(C(=O)c2cc3c(N)c(C(=O)Nc4ccc(Cl)cc4)sc3nc2C)cc1 only.
71.9% (inactive)

Answer with the recorded growth of COC(=O)Nc1nc2ccc(C(=O)c3cccc(I)c3)cc2[nH]1 only.
-25.8% (active)

Answer with the recorded growth of Cn1c(COC(=O)NCCn2ccnc2)nc2c(N3CCOCC3)nc(-c3ccccc3)nc21 only.
-99.6% (active)

Answer with the recorded growth of COc1ccc(NC(=O)c2sc3nc(C)c(C(O)c4ccc(OC)cc4)cc3c2N)cc1 (stereo unspecified) only.
-11.4% (active)

Answer with the recorded growth of C(=C\c1n(Cc2ccc3ccccc3c2)c(-c2ccccc2)c(-c2ccccc2)[n+]1Cc1ccc2ccccc2c1)/c1ccccc1 only.
-91.9% (active)

Answer with the recorded growth of FC(F)(F)c1cccc(Nc2ccccc2)c1 only.
95.5% (inactive)

Answer with the recorded growth of O=[N+]([O-])c1cccc(-c2nc(-c3ccc(Cl)cc3Cl)cn2-c2ccccc2)c1 only.
23.6% (inactive)

Answer with the recorded growth of CCCCCCCCCCCC(=O)C(CCCCCCCCCC)C(=O)Nc1ccccc1 (stereo unspecified) only.
98.2% (inactive)
